Each recorded value in this set is attributed to patent US20250026849A1.

Molecular target: T1, CD123 (Homo sapiens (Human), UniProt P26951 19-305, limits assumed)
T1 construct: The CD123 construct used in the ELISA is not described; also called CD123-Signal
T1 sequence: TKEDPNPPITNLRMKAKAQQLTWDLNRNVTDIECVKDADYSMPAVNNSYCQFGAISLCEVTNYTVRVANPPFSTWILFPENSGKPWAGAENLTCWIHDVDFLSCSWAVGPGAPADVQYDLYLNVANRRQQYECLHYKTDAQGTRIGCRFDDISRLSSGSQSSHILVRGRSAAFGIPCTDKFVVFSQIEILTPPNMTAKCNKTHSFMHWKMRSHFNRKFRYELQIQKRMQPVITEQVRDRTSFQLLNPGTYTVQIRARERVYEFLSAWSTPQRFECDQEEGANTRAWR
Experiment: ELISA
Set-up: unit not given here
Kindly supply the reported ELISA_avg values for the records listed here.
Numbers only.

Would you please look over these solved cases?
>>> print(df.to_string())
                                     binder  numeric_readout
0  D domain of SEQ ID NO: 461 (designed binder) MGSWFEFYDRLDAIYMRLIALGGSEAELAAFEKEIAAFESELQAYKGKGNPEVEVLRRYAANIRAELQAYRHN             13.6
1  D domain of SEQ ID NO: 627 (designed binder) MGSWVEFDSRLAAIDYRLEALGGSEAELAWFEYTIANFEHTLQMYKGKGNPEVEALVYEAHAIATELQAYRHN              3.4

Let us examine a further case.
Query: Consider the binder D domain of SEQ ID NO: 533 (designed binder) MGSWYVFKDDLADIKYMLEALGGSEAELAWFEWEIANFEFDLQYYKGKGNPEVEALRKEAAAIRDELQAYRHN and give its measured ELISA_avg.
Result: 3.8
